Origin of the recorded values: PubChem BioAssay

# assayOverview: Restrictive medium S. cerevisiae growth inhibition, OD615, pilot screen of yeast lifespan reduction project, restrictive growth control (AID 706);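 also: modified DeaD lifespan yeast strain shifted to restrictive glucose medium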
# testConditions: OD615, 48 h, at 10 µM, stronger effect = higher value
outcomeMeasure: growth inhibition (%)

compound="Cc1cccc(N(C(=O)Nc2ccccc2)C2=NCC(C)S2)c1 (stereo unspecified)" outcomemeasure="growth inhibition" unitspec=% experimentalresult=-6.9
compound=CCN(CC)CCCNC(=O)c1cc2c(-c3ccc(Cl)cc3)nn(C)c2s1 outcomemeasure="growth inhibition" unitspec=% experimentalresult=17.3
compound=Cc1ccc(-c2nc(CS(=O)(=O)CC(=O)NCCCN3CCN(C)CC3)c(C)o2)cc1 outcomemeasure="growth inhibition" unitspec=% experimentalresult=-15.2
compound=O=C(c1cccc(F)c1)N1CCN=C1SCc1cccnc1 outcomemeasure="growth inhibition" unitspec=% experimentalresult=8.84
compound=Cn1c(=O)c2c(SCC(=O)c3ccccc3)nc(C3CC3)nc2n(C)c1=O outcomemeasure="growth inhibition" unitspec=% experimentalresult=7.46
compound="COc1ccc(C2N3CC4(C)CN2CC(C)(C3)C4=O)cc1OC (stereo unspecified)" outcomemeasure="growth inhibition" unitspec=% experimentalresult=2.95
compound=CCCSc1nnc(Cn2c(=O)sc3ccccc32)n1-c1ccccc1 outcomemeasure="growth inhibition" unitspec=% experimentalresult=3.11
compound=CC(C)N(Cc1nc(-c2ccccc2)no1)C(=O)COc1ccccc1 outcomemeasure="growth inhibition" unitspec=% experimentalresult=-11.7
compound=COc1ccc(Cl)cc1S(=O)(=O)N1CCN(C)CC1 outcomemeasure="growth inhibition" unitspec=% experimentalresult=-7.12
compound=CCOC(=O)Cc1csc(NC(=O)c2c(-c3ccccc3)noc2C)n1 outcomemeasure="growth inhibition" unitspec=% experimentalresult=-8.59
compound=Cc1c(C(=O)NCCN2CCOCC2)oc2ccc(S(=O)(=O)N3CCCCCC3)cc12 outcomemeasure="growth inhibition" unitspec=% experimentalresult=-1.55
compound=CC(=O)c1ccc(-n2nncc2C(C)(C)C)cc1 outcomemeasure="growth inhibition" unitspec=% experimentalresult=-2.67
compound=CC1(C)CC(=O)N(CC(=O)N2CCN(c3ncccn3)CC2)c2ccccc2S1(=O)=O outcomemeasure="growth inhibition" unitspec=% experimentalresult=-9.5
compound=CCc1ccccc1NC(=O)c1onc(C)c1Cl outcomemeasure="growth inhibition" unitspec=% experimentalresult=1.99
compound=CCOC(=O)CCc1c(C)n(CC)c2ncnn2c1=O outcomemeasure="growth inhibition" unitspec=% experimentalresult=-0.57
compound=Cc1ccc(Cn2nnc3c(=O)n(Cc4ccccc4C)cnc32)cc1 outcomemeasure="growth inhibition" unitspec=% experimentalresult=-5.54
compound=Cc1noc(NS(=O)(=O)c2ccc(NC(=O)CSc3nc4c(cc3C#N)CCCC4)cc2)c1C outcomemeasure="growth inhibition" unitspec=% experimentalresult=3.98
compound=CCOC(=O)c1ccc(NCn2c(=O)oc3ccccc32)cc1 outcomemeasure="growth inhibition" unitspec=% experimentalresult=-15.7
compound=O=C(CC(c1ccccc1)c1ccccc1)NCCO outcomemeasure="growth inhibition" unitspec=% experimentalresult=-4.9
compound=O=C1CCCC/C1=C\Nc1ccc(Cl)cn1 outcomemeasure="growth inhibition" unitspec=% experimentalresult=1.26
compound=O=S(=O)(c1ccc(Cl)c(Cl)c1)N1CCc2nc3ccccc3n2CC1 outcomemeasure="growth inhibition" unitspec=% experimentalresult=4.47
compound=Cc1cccc(C)c1N1C(=O)c2ccccc2C1=O outcomemeasure="growth inhibition" unitspec=% experimentalresult=-3.44
compound="O=C(CCCC(=O)NCC1CCCO1)NCC1CCCO1 (stereo unspecified)" outcomemeasure="growth inhibition" unitspec=% experimentalresult=7.34
compound=CCOC(=O)N1CCN(C(=O)Cn2c(=O)sc3ccccc32)CC1 outcomemeasure="growth inhibition" unitspec=% experimentalresult=-7.62
compound=Cn1c(=O)c2c(SCC(=O)NCc3ccco3)nc(CC(C)(C)C)nc2n(C)c1=O outcomemeasure="growth inhibition" unitspec=% experimentalresult=-0.895
compound=Cc1ccc2oc(=O)c3cnn(CC(=O)NCCN(C)C)c3c2c1 outcomemeasure="growth inhibition" unitspec=% experimentalresult=-11.6
compound=COc1ccc(N2CCN(Cc3nc4c(c(=O)n(C)c(=O)n4C)n3Cc3cccc(C)c3)CC2)cc1 outcomemeasure="growth inhibition" unitspec=% experimentalresult=-24.2
compound="O=C(Nc1ccc(Oc2ccc(NC(=O)C3CCCO3)cc2)cc1)C1CCCO1 (stereo unspecified)" outcomemeasure="growth inhibition" unitspec=% experimentalresult=-11
compound=CCc1nnc(NC(=O)CN2CCOCC2)s1 outcomemeasure="growth inhibition" unitspec=% experimentalresult=-19.4
compound="O=C(NCCc1ccccc1)c1ccc2c(c1)N(Cc1ccccc1)C(=O)CS2=O (stereo unspecified)" outcomemeasure="growth inhibition" unitspec=% experimentalresult=-2.98
compound="OC(CN1C2=NCCCN2c2ccccc21)c1ccc(Cl)cc1 (stereo unspecified)" outcomemeasure="growth inhibition" unitspec=% experimentalresult=2.81
compound=C=C(C)Cn1c(NCCC)nc2c1c(=O)n(C)c(=O)n2C outcomemeasure="growth inhibition" unitspec=% experimentalresult=-3.75
compound=COc1ccc(NC(=O)Nc2nnc(N3CCC(C)CC3)s2)cc1OC outcomemeasure="growth inhibition" unitspec=% experimentalresult=-23
compound=CCCc1cc(C(=O)Nc2sc3c(c2C(=O)OCC)CCCC3)no1 outcomemeasure="growth inhibition" unitspec=% experimentalresult=-10.2
compound=c1ccc(-c2cnn3nnnc3n2)cc1 outcomemeasure="growth inhibition" unitspec=% experimentalresult=-12.7
compound="O=C1CC2CS(=O)(=O)CC2N1C1CCCCC1 (stereo unspecified)" outcomemeasure="growth inhibition" unitspec=% experimentalresult=-13.2
compound=C=C(C)CSc1nnc(-c2cc(OC)c(OC)c(OC)c2)n1N outcomemeasure="growth inhibition" unitspec=% experimentalresult=7.75
compound=CCCC(=O)Nc1nc2ccc(OC)cc2s1 outcomemeasure="growth inhibition" unitspec=% experimentalresult=-17.6
compound="CCOC(=O)N1CCN(C(=O)CS(=O)Cc2nc(-c3ccc(C)cc3)oc2C)CC1 (stereo unspecified)" outcomemeasure="growth inhibition" unitspec=% experimentalresult=7.44
compound=Cc1cc2cc(CCNC(=O)c3c(-c4ccccc4Cl)noc3C)c(=O)[nH]c2cc1C outcomemeasure="growth inhibition" unitspec=% experimentalresult=-2.13
compound=Cc1cc(Nc2ccc(F)cc2F)n2ncnc2n1 outcomemeasure="growth inhibition" unitspec=% experimentalresult=6.47
compound=CCCc1cc(=O)oc2cc(OCC(=O)N(C)C)c(Cl)cc12 outcomemeasure="growth inhibition" unitspec=% experimentalresult=6.56
compound=CCOC(=O)c1ccccc1N1C(=O)CSC1=S outcomemeasure="growth inhibition" unitspec=% experimentalresult=-19.6
compound=CCSc1nnc(Cn2c(=O)sc3ccccc32)n1-c1ccc(OC)cc1 outcomemeasure="growth inhibition" unitspec=% experimentalresult=30.7
compound=O=C(c1cc(-c2ccccc2)nc2ccccc12)N1CCOCC1 outcomemeasure="growth inhibition" unitspec=% experimentalresult=-9.07
compound="CC1CCCN(c2nc3c(c(=O)[nH]c(=O)n3C)n2CCSc2nc3ccccc3o2)C1 (stereo unspecified)" outcomemeasure="growth inhibition" unitspec=% experimentalresult=-1.66
